Listed next: entries and their corresponding kinase still bound, per cent of control.
# MEASUREMENT_TARGET: MKNK1 (human) (UniProt Q9BUB5)
# Sequence (Q9BUB5 whole entry, looked up): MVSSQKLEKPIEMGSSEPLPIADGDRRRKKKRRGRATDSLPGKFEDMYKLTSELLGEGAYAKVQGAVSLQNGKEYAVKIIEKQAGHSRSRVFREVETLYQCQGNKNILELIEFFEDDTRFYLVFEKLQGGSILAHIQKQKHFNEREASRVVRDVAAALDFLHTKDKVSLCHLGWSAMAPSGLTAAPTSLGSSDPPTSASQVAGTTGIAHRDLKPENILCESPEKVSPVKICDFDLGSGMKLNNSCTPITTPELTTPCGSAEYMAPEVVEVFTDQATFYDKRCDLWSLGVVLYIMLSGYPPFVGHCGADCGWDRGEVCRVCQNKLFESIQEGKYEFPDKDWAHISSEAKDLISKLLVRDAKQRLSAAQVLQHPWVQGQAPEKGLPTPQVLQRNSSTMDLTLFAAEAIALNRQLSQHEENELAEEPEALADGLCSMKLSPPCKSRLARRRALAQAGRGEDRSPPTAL
# ASSAY_COMMENT: KINOMEscan competition binding
# PROTOCOL_CONDITIONS: compound 10.0 µM
Give just the numeric value; % need not be written.

Please review the following examples before continuing.
>>> obs_value("C=CC(=O)Nc1ccc(C(=O)c2sc(Nc3ccc(N4CCN(C)CC4)cc3OC)nc2N)cc1")
34
>>> obs_value("Cc1cn(-c2cc(C(=O)Nc3ccc(C)c(NC(=O)c4ccno4)c3)cc(C(F)(F)F)c2)cn1")
100
>>> obs_value("COc1cc(C)c(Sc2cnc(NC(=O)c3ccc(CNC(C)C(C)C)cc3)s2)cc1C(=O)N1CCN(C(C)=O)CC1 (configuration not stated)")
100
>>> obs_value("COc1ccc(N(C(=O)Oc2cc(C(=O)Nc3cccc(C(F)(F)F)c3)ccc2C)c2ccnc(Nc3ccc(N4CCN(C)CC4)cc3)n2)c(OC)c1")
100
>>> obs_value("COc1cc2c(Nc3ccc(NC(=O)c4ccccc4)cc3)ncnc2cc1OCCCN1CCOCC1")
100
>>> obs_value("CCOc1cc(N2CCC(O)CC2)ccc1Nc1ncc2c(n1)N(C)c1ccccc1C(=O)N2C")
100
>>> obs_value("O=c1[nH]c2ccccc2n1C1CCN(Cc2ccc(-c3nc4cc5[nH]cnc5cc4nc3-c3ccccc3)cc2)CC1")
77
>>> obs_value("COc1cc2ncnc(Nc3cccc(Cl)c3)c2cc1OC")
4.6

Request: Give the reported kinase still bound, per cent of control for this compound. `COc1cc(N2CCC(C(N)=O)CC2)ccc1Nc1nc(N)c(Cl)c(Nc2ccccc2S(=O)(=O)C(C)C)n1`
Response: 100

Request: Give the reported kinase still bound, per cent of control for this compound. `CNC(=O)Nc1ccc(-c2nc(N3CC4CCC(C3)O4)c3cnn(C4CCC5(CC4)OCCO5)c3n2)cc1`
Response: 100

###

Listed next: entries and their corresponding kinase still bound, per cent of control.
# MEASUREMENT_TARGET: PIP5K1C (human) (UniProt O60331)
# Sequence (O60331 whole entry, looked up): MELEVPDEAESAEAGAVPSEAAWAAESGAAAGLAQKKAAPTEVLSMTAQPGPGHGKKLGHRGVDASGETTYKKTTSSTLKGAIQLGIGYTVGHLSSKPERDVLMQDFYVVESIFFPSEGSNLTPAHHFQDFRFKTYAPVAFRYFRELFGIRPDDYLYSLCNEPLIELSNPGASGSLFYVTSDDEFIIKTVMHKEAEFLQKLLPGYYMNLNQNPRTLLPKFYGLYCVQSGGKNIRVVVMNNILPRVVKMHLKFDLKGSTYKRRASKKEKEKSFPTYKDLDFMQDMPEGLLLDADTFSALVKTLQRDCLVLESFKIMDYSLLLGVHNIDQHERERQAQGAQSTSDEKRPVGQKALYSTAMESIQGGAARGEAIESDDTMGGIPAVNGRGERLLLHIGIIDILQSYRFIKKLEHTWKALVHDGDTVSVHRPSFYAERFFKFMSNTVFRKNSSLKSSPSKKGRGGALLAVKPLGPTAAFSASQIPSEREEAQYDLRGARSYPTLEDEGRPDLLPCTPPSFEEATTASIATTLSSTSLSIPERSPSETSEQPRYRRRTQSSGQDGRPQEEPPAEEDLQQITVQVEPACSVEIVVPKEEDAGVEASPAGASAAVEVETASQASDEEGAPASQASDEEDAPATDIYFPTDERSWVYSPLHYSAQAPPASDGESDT
# ASSAY_COMMENT: KINOMEscan competition binding
# PROTOCOL_CONDITIONS: compound 10.0 µM
Give just the numeric value; % need not be written.

Please review the following examples before continuing.
>>> obs_value("C=CC(=O)Nc1ccc(C(=O)c2sc(Nc3ccc(N4CCN(C)CC4)cc3OC)nc2N)cc1")
44
>>> obs_value("CCN(CCO)CCCOc1ccc2c(Nc3cc(CC(=O)Nc4cccc(F)c4)[nH]n3)ncnc2c1")
75
>>> obs_value("N#C/C(=C1/Nc2ccccc2S1)c1ccnc(NCCc2cccnc2)n1")
8.2
>>> obs_value("CCCS(=O)(=O)Nc1ccc(F)c(C(=O)c2c[nH]c3ncc(Cl)cc23)c1F")
79
>>> obs_value("CCN1CCN(Cc2ccc(NC(=O)c3ccc(C)c(/C=C/c4cnc5[nH]ccc5c4OC)c3)cc2C(F)(F)F)CC1")
84

Request: Give the reported kinase still bound, per cent of control for this compound. `CCc1nc(-c2cccc(C)c2)c(-c2ccnc(NC(=O)c3ccccc3)c2)s1`
Response: 100

Request: Give the reported kinase still bound, per cent of control for this compound. `COc1cc2ncnc(Nc3cccc(Cl)c3)c2cc1OC`
Response: 14

Request: Give the reported kinase still bound, per cent of control for this compound. CC1=C(C(=O)Nc2cc3cn[nH]c3cc2F)C(c2ccc(C(F)(F)F)cc2)CC(=O)N1 (stereo not drawn)
Response: 92

Request: Give the reported kinase still bound, per cent of control for this compound. `COc1cc2c(Nc3ccc(NC(=O)c4ccccc4)cc3)ncnc2cc1OCCCN1CCOCC1`
Response: 69

Request: Give the reported kinase still bound, per cent of control for this compound. `O=c1[nH]c2ccccc2n1C1CCN(Cc2ccc(-c3nc4cc5[nH]cnc5cc4nc3-c3ccccc3)cc2)CC1`
Response: 29

###

# MEASUREMENT_TARGET: MAP3K2 (human)
# ASSAY_COMMENT: KINOMEscan competition binding
# PROTOCOL_CONDITIONS: compound 10.0 µM
QUANTITY_KIND: kinase still bound, per cent of control (%)
Give just the numeric value; % need not be written.

Please review the following examples before continuing.
>>> obs_value("COc1cc2c(Nc3ccc(NC(=O)c4ccccc4)cc3)ncnc2cc1OCCCN1CCOCC1")
28
>>> obs_value("CC(=O)c1c(C)c2cnc(Nc3ccc(N4CCNCC4)cn3)nc2n(C2CCCC2)c1=O")
49

Request: Give the reported kinase still bound, per cent of control for this compound. `CCOc1cc(N2CCC(O)CC2)ccc1Nc1ncc2c(n1)N(C)c1ccccc1C(=O)N2C`
Response: 100

Request: Give the reported kinase still bound, per cent of control for this compound. `CCN(CCO)CCCOc1ccc2c(Nc3cc(CC(=O)Nc4cccc(F)c4)[nH]n3)ncnc2c1`
Response: 87

Request: Give the reported kinase still bound, per cent of control for this compound. `CNC(=O)Nc1ccc(-c2nc(N3CC4CCC(C3)O4)c3cnn(C4CCC5(CC4)OCCO5)c3n2)cc1`
Response: 95

Request: Give the reported kinase still bound, per cent of control for this compound. `CCCS(=O)(=O)Nc1ccc(F)c(C(=O)c2c[nH]c3ncc(Cl)cc23)c1F`
Response: 62

###

Listed next: entries and their corresponding kinase still bound, per cent of control.
# MEASUREMENT_TARGET: CDK7 (human) (UniProt P50613)
# Sequence (P50613 whole entry, looked up): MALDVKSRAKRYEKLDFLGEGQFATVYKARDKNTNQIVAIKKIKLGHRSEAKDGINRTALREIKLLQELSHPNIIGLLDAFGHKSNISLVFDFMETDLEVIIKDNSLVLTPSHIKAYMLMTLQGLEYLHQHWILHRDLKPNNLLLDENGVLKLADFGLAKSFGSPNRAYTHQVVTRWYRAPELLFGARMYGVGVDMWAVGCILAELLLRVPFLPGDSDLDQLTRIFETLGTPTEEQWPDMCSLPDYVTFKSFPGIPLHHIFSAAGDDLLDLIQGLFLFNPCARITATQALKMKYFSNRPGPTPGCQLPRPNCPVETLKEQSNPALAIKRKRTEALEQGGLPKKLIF
# ASSAY_COMMENT: KINOMEscan competition binding
# PROTOCOL_CONDITIONS: compound 10.0 µM
Give just the numeric value; % need not be written.

Please review the following examples before continuing.
>>> obs_value("COc1cc(C)c(Sc2cnc(NC(=O)c3ccc(CNC(C)C(C)C)cc3)s2)cc1C(=O)N1CCN(C(C)=O)CC1 (centres undefined)")
1.4
>>> obs_value("COc1ccc(N(C(=O)Oc2cc(C(=O)Nc3cccc(C(F)(F)F)c3)ccc2C)c2ccnc(Nc3ccc(N4CCN(C)CC4)cc3)n2)c(OC)c1")
100
>>> obs_value("Cc1cn(-c2cc(C(=O)Nc3ccc(C)c(NC(=O)c4ccno4)c3)cc(C(F)(F)F)c2)cn1")
100

Pending compound:
Request: Give the reported kinase still bound, per cent of control for this compound. `CCOc1cc(N2CCC(O)CC2)ccc1Nc1ncc2c(n1)N(C)c1ccccc1C(=O)N2C`
Response: 100

###

# MEASUREMENT_TARGET: UniProtKB Q8IWQ3
# Sequence (Q8IWQ3 whole entry, looked up): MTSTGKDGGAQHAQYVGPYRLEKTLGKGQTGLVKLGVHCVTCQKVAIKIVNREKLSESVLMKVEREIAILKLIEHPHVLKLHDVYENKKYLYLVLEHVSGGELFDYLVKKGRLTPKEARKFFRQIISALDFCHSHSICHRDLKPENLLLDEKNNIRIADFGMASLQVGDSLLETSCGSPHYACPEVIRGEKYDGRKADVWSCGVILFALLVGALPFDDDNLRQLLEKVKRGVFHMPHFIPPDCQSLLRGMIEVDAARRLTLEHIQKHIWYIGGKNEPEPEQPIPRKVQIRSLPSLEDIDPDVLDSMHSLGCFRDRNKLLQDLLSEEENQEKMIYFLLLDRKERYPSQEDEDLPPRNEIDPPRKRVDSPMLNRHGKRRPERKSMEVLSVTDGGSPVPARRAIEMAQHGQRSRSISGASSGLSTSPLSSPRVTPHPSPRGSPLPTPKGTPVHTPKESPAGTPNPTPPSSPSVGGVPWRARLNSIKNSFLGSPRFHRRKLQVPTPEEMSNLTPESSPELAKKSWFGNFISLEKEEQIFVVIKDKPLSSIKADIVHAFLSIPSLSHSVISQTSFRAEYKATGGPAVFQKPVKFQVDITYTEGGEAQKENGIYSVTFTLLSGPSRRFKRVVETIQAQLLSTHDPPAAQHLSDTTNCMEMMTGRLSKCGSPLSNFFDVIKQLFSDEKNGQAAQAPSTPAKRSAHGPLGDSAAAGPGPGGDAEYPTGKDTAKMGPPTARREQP
# ASSAY_COMMENT: KINOMEscan competition binding
# PROTOCOL_CONDITIONS: compound 10.0 µM
Listed next: entries and their corresponding kinase still bound, per cent of control.
Give just the numeric value; % need not be written.

>>> obs_value("CC(=O)c1c(C)c2cnc(Nc3ccc(N4CCNCC4)cn3)nc2n(C2CCCC2)c1=O")
80
>>> obs_value("CCOc1cc(N2CCC(O)CC2)ccc1Nc1ncc2c(n1)N(C)c1ccccc1C(=O)N2C")
100
>>> obs_value("C=CC(=O)Nc1ccc(C(=O)c2sc(Nc3ccc(N4CCN(C)CC4)cc3OC)nc2N)cc1")
72
>>> obs_value("CC1=C(C(=O)Nc2cc3cn[nH]c3cc2F)C(c2ccc(C(F)(F)F)cc2)CC(=O)N1 (centres undefined)")
90
>>> obs_value("COc1cc2c(Nc3ccc(NC(=O)c4ccccc4)cc3)ncnc2cc1OCCCN1CCOCC1")
100
>>> obs_value("CNC(=O)Nc1ccc(-c2nc(N3CC4CCC(C3)O4)c3cnn(C4CCC5(CC4)OCCO5)c3n2)cc1")
100

Request: Give the reported kinase still bound, per cent of control for this compound. `COc1cc(N2CCC(C(N)=O)CC2)ccc1Nc1nc(N)c(Cl)c(Nc2ccccc2S(=O)(=O)C(C)C)n1`
Response: 100

Request: Give the reported kinase still bound, per cent of control for this compound. `COc1cc2ncnc(Nc3cccc(Cl)c3)c2cc1OC`
Response: 45

Request: Give the reported kinase still bound, per cent of control for this compound. `Cc1cn(-c2cc(C(=O)Nc3ccc(C)c(NC(=O)c4ccno4)c3)cc(C(F)(F)F)c2)cn1`
Response: 100

###

# MEASUREMENT_TARGET: LIMK1 (human) (UniProt P53667)
# Sequence (P53667 whole entry, looked up): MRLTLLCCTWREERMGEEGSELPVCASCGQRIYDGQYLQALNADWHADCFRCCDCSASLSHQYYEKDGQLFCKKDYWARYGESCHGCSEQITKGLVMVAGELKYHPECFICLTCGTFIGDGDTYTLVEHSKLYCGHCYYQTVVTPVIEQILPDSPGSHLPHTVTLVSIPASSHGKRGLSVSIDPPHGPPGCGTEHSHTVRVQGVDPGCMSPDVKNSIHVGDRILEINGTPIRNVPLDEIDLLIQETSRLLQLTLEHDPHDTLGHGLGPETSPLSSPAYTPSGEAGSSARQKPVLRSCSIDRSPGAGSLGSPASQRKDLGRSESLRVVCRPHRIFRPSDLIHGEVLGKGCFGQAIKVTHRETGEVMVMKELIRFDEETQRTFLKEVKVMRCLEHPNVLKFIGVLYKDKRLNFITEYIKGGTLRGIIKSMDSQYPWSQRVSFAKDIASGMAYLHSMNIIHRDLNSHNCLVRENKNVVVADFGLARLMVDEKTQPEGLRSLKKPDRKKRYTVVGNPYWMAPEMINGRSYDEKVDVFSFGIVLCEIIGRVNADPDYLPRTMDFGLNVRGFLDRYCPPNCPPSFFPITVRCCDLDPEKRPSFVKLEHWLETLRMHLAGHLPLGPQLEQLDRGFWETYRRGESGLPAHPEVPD
# ASSAY_COMMENT: KINOMEscan competition binding
# PROTOCOL_CONDITIONS: compound 10.0 µM
Listed next: entries and their corresponding kinase still bound, per cent of control.

>>> obs_value("CCN1CCN(Cc2ccc(NC(=O)c3ccc(C)c(/C=C/c4cnc5[nH]ccc5c4OC)c3)cc2C(F)(F)F)CC1")
"7.7%"

Request: Give the reported kinase still bound, per cent of control for this compound. `COc1cc2ncnc(Nc3cccc(Cl)c3)c2cc1OC`
Response: 100%

Request: Give the reported kinase still bound, per cent of control for this compound. `COc1ccc(N(C(=O)Oc2cc(C(=O)Nc3cccc(C(F)(F)F)c3)ccc2C)c2ccnc(Nc3ccc(N4CCN(C)CC4)cc3)n2)c(OC)c1`
Response: 2.8%

Request: Give the reported kinase still bound, per cent of control for this compound. `CCN(CCO)CCCOc1ccc2c(Nc3cc(CC(=O)Nc4cccc(F)c4)[nH]n3)ncnc2c1`
Response: 100%

Request: Give the reported kinase still bound, per cent of control for this compound. `C=CC(=O)Nc1ccc(C(=O)c2sc(Nc3ccc(N4CCN(C)CC4)cc3OC)nc2N)cc1`
Response: 79%

Request: Give the reported kinase still bound, per cent of control for this compound. `O=c1[nH]c2ccccc2n1C1CCN(Cc2ccc(-c3nc4cc5[nH]cnc5cc4nc3-c3ccccc3)cc2)CC1`
Response: 86%

Request: Give the reported kinase still bound, per cent of control for this compound. `CNC(=O)Nc1ccc(-c2nc(N3CC4CCC(C3)O4)c3cnn(C4CCC5(CC4)OCCO5)c3n2)cc1`
Response: 95%

Request: Give the reported kinase still bound, per cent of control for this compound. `CCCS(=O)(=O)Nc1ccc(F)c(C(=O)c2c[nH]c3ncc(Cl)cc23)c1F`
Response: 46%

Request: Give the reported kinase still bound, per cent of control for this compound. `Cc1cn(-c2cc(C(=O)Nc3ccc(C)c(NC(=O)c4ccno4)c3)cc(C(F)(F)F)c2)cn1`
Response: 100%

Hello, the source for this data is the kinase profiling compilation of Christmann-Franck et al. (2016), in case you need it.
